Listed here: items and their measured largest response in the series, negative = inhibition.
- subject_of_test: 4'-phosphopantetheinyl transferase ffp (Bacillus subtilis) (UniProt Q9F4F7)
- protocol: qHTS Assay for Inhibitors of Bacillus subtilis Sfp phosphopantetheinyl transferase (PPTase);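 further: the enzyme is Sfp with the accession as filed and its product quenches rhodamine fluorescence; 0% = enzyme reaction without inhibitor and -100% = no enzyme wells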
- condition_details: Biochemical Sfp PPTase activity
Hit rate of the full screen: of about 310,000 compounds, about 11,000 (3.5%) were called active. Not shown: some 4% with an inconclusive outcome. This excerpt belongs to a sample that is enriched for actives.
Provide the reading as a plain figure in %.

Field: example entries. Status: answers known.
COc1cc2c(cc1OC)[C@@H](Cc1cc(OC)c(OC)c(OC)c1)[N+](C)(CCCOC(=O)CC/C=C/CCC(=O)OCCC[N+]1(C)CCc3cc(OC)c(OC)cc3[C@H]1Cc1cc(OC)c(OC)c(OC)c1)CC2 (some centres not stated)	-3.12
CC(C)c1ccc(NC(=O)[C@@H](NC(=O)N2CC(=O)Nc3ccccc32)C(C)C)cc1	4.22
CCN(CC)S(=O)(=O)c1cc([N+](=O)[O-])ccc1N=Nc1c(O)n(C)c2ccccc12	22.9
Cc1nc2sc(C(c3ccco3)N3CCOCC3)c(O)n2n1 (configuration not stated)	-2.77
COc1cccc(OCc2nnc3n2N=C(c2ccccc2)C(CC(=O)O)S3)c1 (configuration not stated)	13.2
CCCCNc1nc(C)nc2c1nc(-c1ccccc1)n2CCCCN(CC)CC	23.3
O=C(O)C1CC=CC2CCN(C3CCCCC3)C(=O)C21 (configuration not stated)	40
O=C(CSc1nnc(-c2cccnc2)n1Cc1ccco1)c1ccc(Cl)cc1	5.12

largest response in the series, negative = inhibition reported for this compound CC1CCCCN1C(=O)Cn1c(=O)oc2cc(S(=O)(=O)N3CCCCC3)ccc21 (configuration not stated) : 10.7

largest response in the series, negative = inhibition reported for this compound CCCCN(C)CCCNC(=O)c1cc(-c2cccs2)nc2ccccc12 : -6.84

largest response in the series, negative = inhibition reported for this compound Cc1nn(-c2ccccc2)c(Cl)c1/C=N/NC(=O)c1nn(C)cc1[N+](=O)[O-] : -3.09

largest response in the series, negative = inhibition reported for this compound Oc1ccc(-c2[nH]ncc2-c2nc3ccccc3s2)c(O)c1 : 2.93

largest response in the series, negative = inhibition reported for this compound COc1ccc(CNS(=O)(=O)c2cc(-c3cc(C)no3)ccc2C(C)C)cc1 : 7.48

largest response in the series, negative = inhibition reported for this compound Cc1ccc(S(=O)(=O)N/N=C\c2cc3c(cc2[N+](=O)[O-])OCO3)cc1 : -17.6
